target: Tyrosine-protein kinase Lyn (Homo sapiens); test: Enzymatic radiometric [Km ATP] KinaseProfiler LeadHunter assay, kinase: Lyn, catalogue number: 14-510KP The assay has been performed by Eurofins Discovery.; conditions: ATP concentration 70.0 uM, Test compound concentration 10.0 uM
measurement-kind: Activity (%)

> print(dat)
                            molecular.string                               test.target  measurement.kind  reported.value
 1  CNC(=O)Cn1cc(-c2cc3c(N[C@@H](c4ccc5c(c4)S(=O)(=O)CCC5)C(C)C)ncnc3[nH]2)cn1  Tyrosine-protein kinase Lyn (Homo sapiens)          Activity              75
 2  CNCc1cc(-c2cc3c(N[C@@H](c4ccc5c(c4)S(=O)(=O)CCC5)C(C)C)ncnc3[nH]2)co1  Tyrosine-protein kinase Lyn (Homo sapiens)          Activity              47
 3  Cn1ncc(-c2cc3c(N[C@@H](c4ccc5c(n4)OCCO5)C(C)(C)C)ncnc3[nH]2)c1C#N  Tyrosine-protein kinase Lyn (Homo sapiens)          Activity             101
 4  COc1ccc([C@@H](Cc2nnn[nH]2)NC(=O)c2ncnc3[nH]ccc23)cc1  Tyrosine-protein kinase Lyn (Homo sapiens)          Activity             111
 5  CC(C)[C@H](Nc1ncnc2[nH]ccc12)c1ccc2c(c1)S(=O)(=O)CCC2  Tyrosine-protein kinase Lyn (Homo sapiens)          Activity             104
 6  Cc1nn(C)cc1-c1cc2c(N[C@H](c3ccc4c(c3)S(=O)(=O)CCC4)C(C)C)ncnc2[nH]1  Tyrosine-protein kinase Lyn (Homo sapiens)          Activity              48
 7  CC(C)[C@H](Nc1ncnc2[nH]c(-c3cnn(C)c3C#N)cc12)c1ccc2c(n1)OCCO2  Tyrosine-protein kinase Lyn (Homo sapiens)          Activity              79
 8  CC(C)[C@@H](Nc1ncnc2[nH]ccc12)c1ccc2c(c1)S(=O)(=O)CCC2  Tyrosine-protein kinase Lyn (Homo sapiens)          Activity             112
 9  C[C@H](C(=O)O)[C@@H](NC(=O)c1ncnc2[nH]ccc12)c1ccc(Br)cc1  Tyrosine-protein kinase Lyn (Homo sapiens)          Activity              94
10  COc1ccc([C@H](Cc2nnn[nH]2)NC(=O)c2ncnc3[nH]ccc23)cc1  Tyrosine-protein kinase Lyn (Homo sapiens)          Activity             108
11  CC(C)[C@@H](Nc1ncnc2[nH]c(C(=O)N[C@@H]3CCN(C)C3)cc12)c1ccc2c(c1)S(=O)(=O)CCC2  Tyrosine-protein kinase Lyn (Homo sapiens)          Activity             107

---

Below is a list of entries, each paired with its recorded Activity value.
biological target: Serine/threonine-protein kinase Nek2 (Homo sapiens); assay: Enzymatic radiometric [Km ATP] KinaseProfiler LeadHunter assay, kinase: NEK2, catalogue number: 14-545KP The assay has been performed by Eurofins Discovery.; conditions: ATP concentration 120.0 uM, Test compound concentration 10.0 uM
measurement-kind: Activity (%)

> print(dat)
                            molecular.string  reported.value
 1  COc1ccc([C@H](Cc2nnn[nH]2)NC(=O)c2ncnc3[nH]ccc23)cc1             106
 2  Cn1ncc(-c2cc3c(N[C@@H](c4ccc5c(n4)OCCO5)C(C)(C)C)ncnc3[nH]2)c1C#N             104
 3  Cc1nn(C)cc1-c1cc2c(N[C@H](c3ccc4c(c3)S(=O)(=O)CCC4)C(C)C)ncnc2[nH]1              98
 4  CC(C)[C@H](Nc1ncnc2[nH]c(-c3cnn(C)c3C#N)cc12)c1ccc2c(n1)OCCO2             105
 5  CC(C)[C@@H](Nc1ncnc2[nH]c(C(=O)N[C@@H]3CCN(C)C3)cc12)c1ccc2c(c1)S(=O)(=O)CCC2             118
 6  C[C@H](C(=O)O)[C@@H](NC(=O)c1ncnc2[nH]ccc12)c1ccc(Br)cc1             101
 7  CNCc1cc(-c2cc3c(N[C@@H](c4ccc5c(c4)S(=O)(=O)CCC5)C(C)C)ncnc3[nH]2)co1             105
 8  CC(C)[C@@H](Nc1ncnc2[nH]ccc12)c1ccc2c(c1)S(=O)(=O)CCC2             118
 9  CC(C)[C@H](Nc1ncnc2[nH]ccc12)c1ccc2c(c1)S(=O)(=O)CCC2             109
10  CNC(=O)Cn1cc(-c2cc3c(N[C@@H](c4ccc5c(c4)S(=O)(=O)CCC5)C(C)C)ncnc3[nH]2)cn1             114
11  COc1ccc([C@@H](Cc2nnn[nH]2)NC(=O)c2ncnc3[nH]ccc23)cc1             100

---

Below is a list of entries, each paired with its recorded Activity value.
target: Vascular endothelial growth factor receptor 2 (Homo sapiens); assay: Enzymatic radiometric [Km ATP] KinaseProfiler LeadHunter assay, kinase: KDR, catalogue number: 14-630KP The assay has been performed by Eurofins Discovery.; conditions: ATP concentration 90.0 uM, Test compound concentration 10.0 uM
measurement-kind: Activity (%)

> print(dat)
                           molecular.string  measurement.kind  reported.value
1  CC(C)[C@H](Nc1ncnc2[nH]c(-c3cnn(C)c3C#N)cc12)c1ccc2c(n1)OCCO2          Activity              76
2  COc1ccc([C@H](Cc2nnn[nH]2)NC(=O)c2ncnc3[nH]ccc23)cc1          Activity              97
3  CC(C)[C@H](Nc1ncnc2[nH]ccc12)c1ccc2c(c1)S(=O)(=O)CCC2          Activity              86

---

Below is a list of entries, each paired with its recorded Activity value.
biological target: Serine/threonine-protein kinase Chk1 (Homo sapiens); test: Enzymatic radiometric [Km ATP] KinaseProfiler LeadHunter assay, kinase: CHK1, catalogue number: 14-346KP The assay has been performed by Eurofins Discovery.; settings: ATP concentration 90.0 uM, Test compound concentration 10.0 uM
measurement-kind: Activity (%)

> print(dat)
                           molecular.string                               test.target  measurement.kind  reported.value
1  CC(C)[C@@H](Nc1ncnc2[nH]ccc12)c1ccc2c(c1)S(=O)(=O)CCC2  Serine/threonine-protein kinase Chk1 (Homo sapiens)          Activity              84
2  CC(C)[C@@H](Nc1ncnc2[nH]c(C(=O)N[C@@H]3CCN(C)C3)cc12)c1ccc2c(c1)S(=O)(=O)CCC2  Serine/threonine-protein kinase Chk1 (Homo sapiens)          Activity             118
3  CNCc1cc(-c2cc3c(N[C@@H](c4ccc5c(c4)S(=O)(=O)CCC5)C(C)C)ncnc3[nH]2)co1  Serine/threonine-protein kinase Chk1 (Homo sapiens)          Activity             111
4  C[C@H](C(=O)O)[C@@H](NC(=O)c1ncnc2[nH]ccc12)c1ccc(Br)cc1  Serine/threonine-protein kinase Chk1 (Homo sapiens)          Activity              99
5  COc1ccc([C@@H](Cc2nnn[nH]2)NC(=O)c2ncnc3[nH]ccc23)cc1  Serine/threonine-protein kinase Chk1 (Homo sapiens)          Activity              95
6  Cc1nn(C)cc1-c1cc2c(N[C@H](c3ccc4c(c3)S(=O)(=O)CCC4)C(C)C)ncnc2[nH]1  Serine/threonine-protein kinase Chk1 (Homo sapiens)          Activity             102

---

Biological target: Eukaryotic elongation factor 2 kinase (Homo sapiens)
Sequence (whole entry): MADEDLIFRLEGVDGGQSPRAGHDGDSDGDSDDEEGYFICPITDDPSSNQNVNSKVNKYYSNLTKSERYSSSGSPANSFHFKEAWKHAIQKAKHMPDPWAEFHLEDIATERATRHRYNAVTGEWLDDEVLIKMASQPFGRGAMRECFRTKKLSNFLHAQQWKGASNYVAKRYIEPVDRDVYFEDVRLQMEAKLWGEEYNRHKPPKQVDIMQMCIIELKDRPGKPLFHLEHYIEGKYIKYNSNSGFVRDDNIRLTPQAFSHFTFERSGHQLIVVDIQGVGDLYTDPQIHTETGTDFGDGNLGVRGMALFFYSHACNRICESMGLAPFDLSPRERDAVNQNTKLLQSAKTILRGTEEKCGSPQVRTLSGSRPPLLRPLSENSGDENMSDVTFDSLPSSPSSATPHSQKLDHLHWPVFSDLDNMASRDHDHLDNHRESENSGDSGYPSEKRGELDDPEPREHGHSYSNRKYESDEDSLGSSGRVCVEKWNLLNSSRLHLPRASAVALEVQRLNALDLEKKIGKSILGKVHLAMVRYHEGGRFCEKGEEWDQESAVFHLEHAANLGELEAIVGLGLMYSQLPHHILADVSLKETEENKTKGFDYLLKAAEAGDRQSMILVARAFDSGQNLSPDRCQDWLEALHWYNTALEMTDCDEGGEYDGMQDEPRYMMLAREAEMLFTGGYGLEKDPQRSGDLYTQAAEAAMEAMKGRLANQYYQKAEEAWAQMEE
Experiment: Enzymatic radiometric [Km ATP] KinaseProfiler LeadHunter assay, kinase: eEF-2K, catalogue number: 14-654KP The assay has been performed by Eurofins Discovery.
Settings: ATP concentration 15.0 uM, Test compound concentration 10.0 uM
Below is a list of entries, each paired with its recorded Activity value.
measurement-kind: Activity

> print(dat)
                           molecular.string  reported.value
1  Cc1nn(C)cc1-c1cc2c(N[C@H](c3ccc4c(c3)S(=O)(=O)CCC4)C(C)C)ncnc2[nH]1             98%
2  CNCc1cc(-c2cc3c(N[C@@H](c4ccc5c(c4)S(=O)(=O)CCC5)C(C)C)ncnc3[nH]2)co1             82%
3  CC(C)[C@H](Nc1ncnc2[nH]ccc12)c1ccc2c(c1)S(=O)(=O)CCC2             93%
4  CNC(=O)Cn1cc(-c2cc3c(N[C@@H](c4ccc5c(c4)S(=O)(=O)CCC5)C(C)C)ncnc3[nH]2)cn1             94%
5  C[C@H](C(=O)O)[C@@H](NC(=O)c1ncnc2[nH]ccc12)c1ccc(Br)cc1             85%
6  CC(C)[C@H](Nc1ncnc2[nH]c(-c3cnn(C)c3C#N)cc12)c1ccc2c(n1)OCCO2            108%
7  CC(C)[C@@H](Nc1ncnc2[nH]ccc12)c1ccc2c(c1)S(=O)(=O)CCC2             92%
8  CC(C)[C@@H](Nc1ncnc2[nH]c(C(=O)N[C@@H]3CCN(C)C3)cc12)c1ccc2c(c1)S(=O)(=O)CCC2             89%
